# Subject of test: Cellular tumor antigen p53 (Homo sapiens) (UniProt P04637)
# Sequence (P04637 whole entry, looked up): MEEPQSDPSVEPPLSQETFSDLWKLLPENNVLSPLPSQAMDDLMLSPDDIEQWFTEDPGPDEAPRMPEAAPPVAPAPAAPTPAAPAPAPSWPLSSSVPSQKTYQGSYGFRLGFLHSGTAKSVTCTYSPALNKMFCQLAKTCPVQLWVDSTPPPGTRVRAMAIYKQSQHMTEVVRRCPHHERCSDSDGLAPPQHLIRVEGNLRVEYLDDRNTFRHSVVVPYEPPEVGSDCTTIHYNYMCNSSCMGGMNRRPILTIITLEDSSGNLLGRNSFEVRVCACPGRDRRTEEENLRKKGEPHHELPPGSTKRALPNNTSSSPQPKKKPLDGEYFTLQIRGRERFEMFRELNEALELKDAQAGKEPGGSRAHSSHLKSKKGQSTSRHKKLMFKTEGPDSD
# Test details: TOX21_p53_BLA_p5_ratio: Tox21 HCT-116 p53 Agonism Beta-lactamase Assay, Ratio, Phase 5 (AID 2283599)
Inconclusive results are not listed. Activity calls are given as the source filed them. The calls were made as follows: active = hit-call score of the fitted dose curve at least 0.9, where 1 is the maximum; inconclusive = response in the unintended direction; inactive = score below 0.9.
Write down the outcome that applies. Available outcomes: T for active, F for inactive

Q: Hi, sorry to bother you, what did the test record for CC(O)CO (centres undefined) ?
Result: F

Q: Hi, sorry to bother you, what did the test record for OCCC(F)(F)C(F)(F)C(F)(F)C(F)(F)C(F)(F)C(F)(F)F ?
Result: F

Q: Hi, sorry to bother you, what did the test record for CN1CCN(c2ccccc2/C=C2\SCCN(c3ccc(Cl)c(Cl)c3)C2=O)CC1 ?
Result: T

Q: Hi, sorry to bother you, what did the test record for CCCOc1sc(C(=O)N2CCC(c3cc(CN)ccc3F)CC2)c(C)c1Br ?
Result: T
